Target: cell-surface VLA-4 (α4β1 integrin) on Ramos cells binding to immobilized VCAM-1 (Homo sapiens, UniProt P05556+P13612)
Construct: Ramos cells bearing cell-surface VLA-4; endogenous in cells; host or cells: Ramos cells (VLA-4); VCAM-1 purified from CHO cell culture media
Sequence (P13612 34-1032): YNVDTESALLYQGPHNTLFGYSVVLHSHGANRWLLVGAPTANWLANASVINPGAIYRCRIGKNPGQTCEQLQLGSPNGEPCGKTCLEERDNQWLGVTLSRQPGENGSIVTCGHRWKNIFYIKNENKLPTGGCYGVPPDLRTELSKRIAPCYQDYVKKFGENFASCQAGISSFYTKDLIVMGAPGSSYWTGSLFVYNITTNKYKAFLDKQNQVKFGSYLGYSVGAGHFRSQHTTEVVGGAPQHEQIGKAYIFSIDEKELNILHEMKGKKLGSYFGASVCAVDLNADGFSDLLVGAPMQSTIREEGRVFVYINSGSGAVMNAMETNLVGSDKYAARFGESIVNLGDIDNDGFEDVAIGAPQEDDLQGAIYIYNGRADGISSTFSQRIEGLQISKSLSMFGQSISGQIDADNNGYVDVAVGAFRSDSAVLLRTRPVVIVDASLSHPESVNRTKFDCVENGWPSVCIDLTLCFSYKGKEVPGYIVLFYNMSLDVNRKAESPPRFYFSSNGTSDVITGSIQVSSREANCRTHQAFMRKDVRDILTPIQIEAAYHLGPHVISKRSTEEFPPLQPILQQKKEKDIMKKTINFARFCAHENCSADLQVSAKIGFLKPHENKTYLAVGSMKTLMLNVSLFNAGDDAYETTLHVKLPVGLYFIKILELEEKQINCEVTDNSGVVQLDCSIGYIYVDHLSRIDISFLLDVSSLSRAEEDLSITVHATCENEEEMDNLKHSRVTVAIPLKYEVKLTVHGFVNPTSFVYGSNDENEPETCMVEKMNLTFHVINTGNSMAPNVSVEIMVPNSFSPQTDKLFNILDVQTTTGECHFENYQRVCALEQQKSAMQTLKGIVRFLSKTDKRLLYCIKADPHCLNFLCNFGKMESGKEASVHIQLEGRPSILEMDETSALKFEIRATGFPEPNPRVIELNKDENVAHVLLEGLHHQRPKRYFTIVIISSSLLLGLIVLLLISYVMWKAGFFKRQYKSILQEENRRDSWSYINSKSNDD
Sequence (P05556 21-798): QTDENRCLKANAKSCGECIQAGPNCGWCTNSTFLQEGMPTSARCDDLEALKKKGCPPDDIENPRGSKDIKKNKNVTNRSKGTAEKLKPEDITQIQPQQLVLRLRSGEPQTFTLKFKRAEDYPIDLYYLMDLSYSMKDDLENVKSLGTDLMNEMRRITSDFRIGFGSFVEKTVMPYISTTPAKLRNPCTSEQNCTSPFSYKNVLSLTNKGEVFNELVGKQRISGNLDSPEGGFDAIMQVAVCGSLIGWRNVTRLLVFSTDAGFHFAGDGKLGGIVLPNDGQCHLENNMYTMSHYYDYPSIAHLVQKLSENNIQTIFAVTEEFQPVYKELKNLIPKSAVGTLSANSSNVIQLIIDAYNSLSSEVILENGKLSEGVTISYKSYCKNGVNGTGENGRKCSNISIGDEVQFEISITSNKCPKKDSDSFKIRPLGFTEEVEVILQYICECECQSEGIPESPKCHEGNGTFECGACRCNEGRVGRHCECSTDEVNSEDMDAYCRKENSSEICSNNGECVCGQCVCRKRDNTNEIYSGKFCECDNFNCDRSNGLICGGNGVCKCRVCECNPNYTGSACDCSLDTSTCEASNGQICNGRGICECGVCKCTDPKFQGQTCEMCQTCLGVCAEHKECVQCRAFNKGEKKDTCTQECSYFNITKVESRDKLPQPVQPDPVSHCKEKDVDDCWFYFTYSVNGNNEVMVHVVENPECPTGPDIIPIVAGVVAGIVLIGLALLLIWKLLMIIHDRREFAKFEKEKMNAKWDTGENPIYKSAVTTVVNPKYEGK
Test: Ramos (VLA-4)/VCAM-1 Cell-Based Screening Assay (cell adhesion)
Outcome Measure: pIC50
Answer as the number alone; pIC50 is minus log10 of concentration in mol/L.

Per the records, this compound ( O=C(NCCC1(C(=O)N[C@@H](Cc2ccc(NC(=O)c3c(Cl)cccc3Cl)cc2)C(=O)O)CCCC1)c1ccncc1 ) has pIC50 equal to 6.48

----------
Target: cell-surface VLA-4 (α4β1 integrin) on Ramos cells binding to immobilized VCAM-1 (Homo sapiens, UniProt P05556+P13612)
Construct: Ramos cells bearing cell-surface VLA-4; endogenous in cells; host or cells: Ramos cells (VLA-4); VCAM-1 purified from CHO cell culture media
Test: Ramos (VLA-4)/VCAM-1 Cell-Based Screening Assay (cell adhesion)
Settings: Calcein-AM labeled Ramos cells, VCAM-1 coated plates, 45 min at room temperature; read-out: IC50 in Ramos Cell Based Assay
Text: Calcein-AM was purchased from Molecular Probes Inc. VLA-4 (α4β1 integrin) antagonist activity, defined as ability to compete with cell-surface VLA-4 for binding to immobilized VCAM-1, was quantitated using a Ramos-VCAM-1 cell adhesion assay. Ramos cells bearing cell-surface VLA-4, were labeled with a fluorescent dye (Calcein-AM) and allowed to bind VCAM-1 in the presence or absence of test compounds. […]
Param label: returns Fulfilled when IC50 < 20 nM, returns Not fulfilled otherwise, including exact equality.

Known results for compounds:
CC(=O)NCCC1(C(=O)N[C@@H](Cc2ccc(N3C(=O)[C@@H](Cc4cccnc4)N(C(C)=O)C3c3ccccc3)cc2)C(=O)O)CCCC1 (single isomer, unassigned) : Fulfilled
Cn1nnnc1-c1ccc(CC2(C(=O)N[C@@H](Cc3ccc(NC(=O)c4c(Cl)cccc4Cl)cc3)C(=O)O)CCCC2)cc1 : Fulfilled
[N-]=[N+]=NCCCCC1(C(=O)N[C@@H](Cc2ccc(NC(=O)c3c(Cl)cccc3Cl)cc2)C(=O)O)CCCC1 : Not fulfilled
CS(=O)(=O)CCCCC1(C(=O)N[C@@H](Cc2ccc(NC(=O)c3c(Cl)cccc3Cl)cc2)C(=O)O)CCCC1 : Fulfilled
COC(=O)NC(=O)NCCC1(C(=O)N[C@@H](Cc2ccc(NC(=O)c3c(Cl)cccc3Cl)cc2)C(=O)O)CCCC1 : Not fulfilled

Read the next record carefully.
Regarding COc1ccc(C[C@@H]2C(=O)N(c3ccc(C[C@H](NC(=O)C4(CCNC(C)=O)CCCC4)C(=O)O)cc3)C(CCc3ccccc3)N2C(C)=O)cc1 (single isomer, unassigned) , kindly confirm whether its IC50 is beneath 20 nM.
Not fulfilled

----------
Biological target: cell-surface VLA-4 (α4β1 integrin) on Ramos cells binding to immobilized VCAM-1 (Homo sapiens, UniProt P05556+P13612)
Construct: Ramos cells bearing cell-surface VLA-4; endogenous in cells; host or cells: Ramos cells (VLA-4); VCAM-1 purified from CHO cell culture media
Assay: Ramos (VLA-4)/VCAM-1 Cell-Based Screening Assay (cell adhesion)
Conditions: Calcein-AM labeled Ramos cells, VCAM-1 coated plates, 45 min at room temperature; read-out: IC50 in Ramos Cell Based Assay
Outcome Measure: IC50 (nM)
Give just the numeric value; nM need not be written.

Per the records, this compound ( CC(C)(C)OC(=O)NCCC1(C(=O)N[C@@H](Cc2ccc(NC(=O)c3c(Cl)cccc3Cl)cc2)C(=O)O)CCCC1 ) has IC50 equal to 360

Per the records, this compound ( COC(=O)N(C)CCC1(C(=O)N[C@@H](Cc2ccc(NC(=O)c3c(Cl)cccc3Cl)cc2)C(=O)O)CCCC1 ) has IC50 equal to 31

Per the records, this compound ( CC(=O)NCCC1(C(=O)N[C@@H](Cc2ccc(N3C(=O)[C@@H](C)N(C(C)=O)C3c3ccc(Cl)cc3)cc2)C(=O)O)CCCC1 (mixture of isomers) ) has IC50 equal to 13

----------
Target: VLA-4 (α4β1 integrin) binding to immobilized VCAM-1 (Homo sapiens, UniProt P05556+P13612)
Construct: followed by 10 μl of Ramos cell-derived VLA-4; endogenous in cells; host or cells: Ramos cells (VLA-4 preparation derived from the cells)
Sequence (P13612 34-1032): as the sequence (P13612 34-1032) above
Sequence (P05556 21-798): as the sequence (P05556 21-798) above
Assay: VLA-4/VCAM-1 Screening Assay (solid-phase, dual antibody ELISA)
Settings: Ramos cell-derived VLA-4, recombinant human VCAM-1 coated plates, 2 hr at 37° C.; read-out: IC50
Outcome Measure: IC50
Reply with a number, then the unit it belongs to.

CC1(C(=O)N[C@@H](Cc2ccc(NC(=O)c3ccnc4ccccc34)cc2)C(=O)O)CCCCC1 [Example 70] : 7 nM
COc1ccc(C2(C(=O)N[C@@H](Cc3ccc(NC(=O)c4cc([N+](=O)[O-])ccc4C)cc3)C(=O)O)CCCCC2)cc1 [Example 105] : 0.83 nM
O=C(Nc1ccc(CC(NC(=O)C23CC4CC(CC(C4)C2)C3)C(=O)O)cc1)c1ccc(F)cc1C(F)(F)F (stereo not shown) [Example 84] : 4.4 nM

Per the records, this compound ( CCCCC(C)(CC)C(=O)N[C@@H](Cc1ccc(NC(=O)c2c(Cl)cccc2Cl)cc1)C(=O)O (stereo partly shown) [Example 88] ) has IC50 equal to 3.9 nM

----------
Biological target: VLA-4 (α4β1 integrin) binding to immobilized VCAM-1 (Homo sapiens, UniProt P05556+P13612)
Construct: followed by 10 μl of Ramos cell-derived VLA-4; endogenous in cells; host or cells: Ramos cells (VLA-4 preparation derived from the cells)
Test: VLA-4/VCAM-1 Screening Assay (solid-phase, dual antibody ELISA)
Conditions: Ramos cell-derived VLA-4, recombinant human VCAM-1 coated plates, 2 hr at 37° C.; read-out: IC50
Outcome Measure: pIC50
Answer as the number alone; pIC50 is minus log10 of concentration in mol/L.

Answered cases to consult:
COc1ccc(C2(C(=O)N[C@@H](Cc3ccc(NC(=O)c4ccc(F)cc4C(F)(F)F)cc3)C(=O)O)CCCCC2)cc1 [Example 104] : 7.98
O=C(Nc1ccc(C[C@H](NC(=O)C2(c3ccccc3)CCCC2)C(=O)O)cc1)c1ccnc2ccccc12 [Example 75] : 8.42
COc1ccc(CC2(C(=O)N[C@@H](Cc3ccc(N4C(=O)c5ccccc5C4=O)cc3)C(=O)O)CCCC2)cc1 [Example 110] : 8.09

Okay, next one:
Per the records, this compound ( Cn1nnnc1-c1cccc(CC2(C(=O)N[C@@H](Cc3ccc(NC(=O)c4c(Cl)cccc4Cl)cc3)C(=O)O)CCCC2)c1 [Example 48] ) has pIC50 equal to 9.36

----------
Molecular target: VLA-4 (α4β1 integrin) binding to immobilized VCAM-1 (Homo sapiens, UniProt P05556+P13612)
Construct: followed by 10 μl of Ramos cell-derived VLA-4; endogenous in cells; host or cells: Ramos cells (VLA-4 preparation derived from the cells)
Test: VLA-4/VCAM-1 Screening Assay (solid-phase, dual antibody ELISA)
Conditions: Ramos cell-derived VLA-4, recombinant human VCAM-1 coated plates, 2 hr at 37° C.; read-out: IC50
Reported IC50 maps to class as: low range: < 2 nM; mid range: ≥ 2 nM and < 7 nM; high range: ≥ 7 nM

Known results for molecules:
Cn1nnnc1-c1cccc(CC2(C(=O)N[C@@H](Cc3ccc(NC(=O)c4c(Cl)cccc4Cl)cc3)C(=O)O)CCCCC2)c1 [Example 50] : low range
COCCC1(C(=O)NC(Cc2ccc(N3C(=O)C(CC(C)C)N(C(C)=O)C3c3ccc(Cl)cc3)cc2)C(=O)O)CCCC1 (single isomer, unassigned) [Example 138] : low range
Cc1cc(C)c(S(=O)(=O)Nc2ccc(C[C@H](NC(=O)C34CC5CC(CC(C5)C3)C4)C(=O)O)cc2)c(C)c1 [Example 115] : high range
Cc1ccc([N+](=O)[O-])cc1C(=O)Nc1ccc(C[C@H](NC(=O)C2(Cc3ccccc3)CCCC2)C(=O)O)cc1 [Example 36] : mid range
CCCC(C)(CC)C(=O)N[C@@H](Cc1ccc(NC(=O)c2ccnc3ccccc23)cc1)C(=O)O (some centres unmarked) [Example 68] : high range

Returns: class label. Input: COc1ccc(C2(C(=O)N[C@@H](Cc3ccc(NC(=O)c4ccnc5ccccc45)cc3)C(=O)O)CCCCC2)cc1 [Example 79]
low range

Returns: class label. Input: COc1ccc(CC2(C(=O)N[C@@H](Cc3ccc(NC(=O)c4c(Cl)cccc4Cl)cc3)C(=O)O)CCCC2)cc1 [Example 43]
low range

Returns: class label. Input: COc1ccc(CC2(C(=O)N[C@@H](Cc3ccc(NC(=O)c4cc([N+](=O)[O-])ccc4C)cc3)C(=O)O)CCCC2)cc1 [Example 97]
low range

----------
Biological target: VLA-4 (α4β1 integrin) binding to immobilized VCAM-1 (Homo sapiens, UniProt P05556+P13612)
Construct: followed by 10 μl of Ramos cell-derived VLA-4; endogenous in cells; host or cells: Ramos cells (VLA-4 preparation derived from the cells)
Assay: VLA-4/VCAM-1 Screening Assay (solid-phase, dual antibody ELISA)
Outcome Measure: inhibition at 0.01 µM

Answered cases to consult:
O=C(Nc1ccc(C[C@H](NC(=O)C23CC4CC(CC(C4)C2)C3)C(=O)O)cc1)c1ccnc2ccccc12 : 72%
Cc1ccc(C2(C(=O)N[C@@H](Cc3ccc(NC(=O)c4ccnc5ccccc45)cc3)C(=O)O)CCCC2)cc1 : 63%
CCCC(C)(CC)C(=O)N[C@@H](Cc1ccc(NC(=O)c2ccnc3ccccc23)cc1)C(=O)O (some centres unmarked) : 49%
O=C(Nc1ccc(C[C@H](NC(=O)C2(c3ccc(Cl)cc3)CCCC2)C(=O)O)cc1)c1ccnc2ccccc12 : 53%
CCC(C(=O)N[C@@H](Cc1ccc(NC(=O)c2ccnc3ccccc23)cc1)C(=O)O)c1ccccc1 (some centres unmarked) : 49%
CC(C)C(C(=O)N[C@@H](Cc1ccc(NC(=O)c2ccnc3ccccc23)cc1)C(=O)O)c1ccccc1 (some centres unmarked) : 73%
O=C(Nc1ccc(C[C@H](NC(=O)C2(c3ccccc3)CCCC2)C(=O)O)cc1)c1ccnc2ccccc12 : 68%
CC1CCC(C)(C(=O)N[C@@H](Cc2ccc(NC(=O)c3ccnc4ccccc34)cc2)C(=O)O)C1(C)C (some centres unmarked) : 51%
CC1(C(=O)N[C@@H](Cc2ccc(NC(=O)c3ccnc4ccccc34)cc2)C(=O)O)CCCCC1 : 49%
O=C(Nc1ccc(C[C@H](NC(=O)C2(c3ccccc3)CCCCC2)C(=O)O)cc1)c1ccnc2ccccc12 : 67%

Okay, next one:
VLA-4 (α4β1 integrin) binding to immobilized VCAM-1 (Homo sapiens, UniProt P05556+P13612) assay, compound COc1ccc(C2(C(=O)N[C@@H](Cc3ccc(NC(=O)c4ccnc5ccccc45)cc3)C(=O)O)CCCCC2)cc1 , recorded inhibition at 0.01 µM = 77%
